target.desc: recombinant α4β3δ GABAA receptors (Homo sapiens, UniProt P28472+P48169)
Construct: expressed in transfected cells; host or cells: CHO cells (transient transfection, Lipofectamine)
Sequence (P48169 36-554): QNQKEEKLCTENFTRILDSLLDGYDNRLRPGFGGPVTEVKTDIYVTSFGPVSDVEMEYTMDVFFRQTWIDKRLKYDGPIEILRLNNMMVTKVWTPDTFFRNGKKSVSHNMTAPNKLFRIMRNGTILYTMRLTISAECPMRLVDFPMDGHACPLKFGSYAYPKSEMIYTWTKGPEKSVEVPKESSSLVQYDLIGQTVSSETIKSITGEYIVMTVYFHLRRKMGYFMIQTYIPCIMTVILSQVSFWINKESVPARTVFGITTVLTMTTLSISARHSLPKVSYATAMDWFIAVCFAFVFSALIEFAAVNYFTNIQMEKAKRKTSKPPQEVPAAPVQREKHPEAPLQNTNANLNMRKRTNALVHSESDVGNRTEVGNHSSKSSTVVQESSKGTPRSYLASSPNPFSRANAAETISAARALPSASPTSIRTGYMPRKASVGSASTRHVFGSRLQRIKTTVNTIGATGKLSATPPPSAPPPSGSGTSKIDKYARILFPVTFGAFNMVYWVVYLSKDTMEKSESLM
Sequence (P28472 26-473): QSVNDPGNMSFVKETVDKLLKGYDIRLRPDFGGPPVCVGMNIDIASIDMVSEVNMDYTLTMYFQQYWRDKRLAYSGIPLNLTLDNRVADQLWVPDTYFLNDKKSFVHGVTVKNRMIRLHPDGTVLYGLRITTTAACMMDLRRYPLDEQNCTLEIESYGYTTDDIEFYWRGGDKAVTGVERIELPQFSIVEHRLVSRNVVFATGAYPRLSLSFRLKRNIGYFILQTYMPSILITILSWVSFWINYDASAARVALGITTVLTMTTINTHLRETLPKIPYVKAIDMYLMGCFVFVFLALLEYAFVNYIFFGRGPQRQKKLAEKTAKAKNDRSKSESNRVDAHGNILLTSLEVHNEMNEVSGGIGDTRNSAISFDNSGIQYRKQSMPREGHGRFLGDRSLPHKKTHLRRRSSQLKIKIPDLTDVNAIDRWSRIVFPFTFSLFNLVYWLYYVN
Sequence (O14764 17-452 partner limits assumed): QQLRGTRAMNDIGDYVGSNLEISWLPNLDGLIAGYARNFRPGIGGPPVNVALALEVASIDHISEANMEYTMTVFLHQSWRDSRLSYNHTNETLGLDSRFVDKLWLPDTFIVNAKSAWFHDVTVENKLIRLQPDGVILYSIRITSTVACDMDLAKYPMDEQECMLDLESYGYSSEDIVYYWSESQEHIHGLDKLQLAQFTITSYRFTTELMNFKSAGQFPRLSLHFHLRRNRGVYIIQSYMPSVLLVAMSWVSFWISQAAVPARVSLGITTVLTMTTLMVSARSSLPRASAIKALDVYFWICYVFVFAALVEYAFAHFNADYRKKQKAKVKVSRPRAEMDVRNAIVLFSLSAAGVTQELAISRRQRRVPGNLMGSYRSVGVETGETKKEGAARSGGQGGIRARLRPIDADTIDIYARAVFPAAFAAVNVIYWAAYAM
test.method.notes: Patch clamp electrophysiology, manual patch, CHO cells
Type: cell-based
condition.notes: 10 μM test article, GABA EC20 = 2 μM, read-out: GABA (α4β3δ) Manual patch in CHO, % efficacy at 10 μM

- compound.string: "C[C@@]1(O)CC[C@H]2[C@@H](CC[C@@H]3[C@@H]2CC[C@]2(C)[C@@H](C(=O)Cn4cnnn4)CC[C@@H]32)C1"
  Emax at 10 µM: "100 to 500%"
- compound.string: "Cc1nnnn1CC(=O)[C@H]1CC[C@H]2[C@@H]3CC[C@@H]4C[C@@](O)(CF)CC[C@@H]4[C@H]3CC[C@]12C"
  Emax at 10 µM: "> 500%"
- compound.string: "C[C@@]1(O)CC[C@@H]2[C@H]3CC[C@]4(C)[C@@H](C(=O)Cn5cnnn5)CC[C@H]4[C@@H]3C[C@@H](F)[C@H]2C1"
  Emax at 10 µM: "100 to 500%"
- compound.string: "C[C@@]1(O)CC[C@H]2[C@@H](CC[C@@H]3[C@@H]2CC[C@]2(C)[C@@H](C(=O)Cn4ccnn4)CC[C@@H]32)C1"
  Emax at 10 µM: "100 to 500%"
